Measured values drawn from patent US10961198B2 for this set.

Attribute: pEC50
- testedOn: hFXR (Homo sapiens (Human), UniProt Q96RI1)
- Sequence (Q96RI1 whole entry): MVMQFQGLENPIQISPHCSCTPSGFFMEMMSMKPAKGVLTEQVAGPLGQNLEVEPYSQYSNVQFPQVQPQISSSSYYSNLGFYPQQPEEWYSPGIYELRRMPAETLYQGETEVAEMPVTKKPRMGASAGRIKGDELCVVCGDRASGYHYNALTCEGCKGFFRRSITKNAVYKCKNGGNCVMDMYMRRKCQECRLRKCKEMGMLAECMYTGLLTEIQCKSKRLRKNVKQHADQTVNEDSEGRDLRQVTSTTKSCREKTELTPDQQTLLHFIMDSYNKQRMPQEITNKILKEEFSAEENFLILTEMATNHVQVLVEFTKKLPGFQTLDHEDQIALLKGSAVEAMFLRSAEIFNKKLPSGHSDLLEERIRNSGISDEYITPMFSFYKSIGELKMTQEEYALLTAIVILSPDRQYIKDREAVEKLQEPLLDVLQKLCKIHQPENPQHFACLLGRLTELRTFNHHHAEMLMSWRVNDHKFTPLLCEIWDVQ
- Sequence (P19793 whole entry partner): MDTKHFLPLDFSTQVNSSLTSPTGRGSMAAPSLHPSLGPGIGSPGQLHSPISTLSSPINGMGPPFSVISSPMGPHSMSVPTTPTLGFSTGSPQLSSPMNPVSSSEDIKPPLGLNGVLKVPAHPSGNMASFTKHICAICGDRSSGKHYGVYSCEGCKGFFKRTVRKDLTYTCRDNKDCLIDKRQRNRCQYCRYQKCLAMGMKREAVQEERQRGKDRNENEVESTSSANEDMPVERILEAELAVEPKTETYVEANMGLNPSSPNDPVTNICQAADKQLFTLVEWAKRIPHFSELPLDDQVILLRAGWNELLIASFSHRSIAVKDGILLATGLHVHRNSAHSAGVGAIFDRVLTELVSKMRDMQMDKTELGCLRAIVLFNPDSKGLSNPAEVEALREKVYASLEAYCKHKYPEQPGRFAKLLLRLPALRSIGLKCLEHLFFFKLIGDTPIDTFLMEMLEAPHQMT
- testMethodNotes: In Vitro FXR Assay (TK)
- Assay type: cell-based
- particulars: CV-1 cells transfected with hFXR, hRXR, TK-ECRE-luc and pCMX-YFP; incubated 18 hrs; luminescence; maximum efficacy <25% of the Fexarmine control classified as '+'
pEC50: −log10 of the molar value.

// solved cases for pEC50 follow
# compound, endpointName, recordedMeasurement
data = [
    ("CCn1cc(-c2cccc(N(C[C@H]3CC[C@H](c4ccc(OC)c(C)c4)CC3)C(=O)[C@H]3CC[C@H](O)CC3)c2)cn1", "pEC50", "≥ 6.60"),
    ("CCn1cc(-c2cccc(N(C[C@H]3CC[C@H](c4ccc(OC)c(C#N)c4)CC3)C(=O)[C@H]3CC[C@H](O)CC3)c2)cn1", "pEC50", "≥ 6.60"),
    ("CCn1cc([C@H]2CC[C@H](CN(c3cccc(-c4cnn(C5CC5)c4)c3)C(=O)[C@H]3CC[C@H](O)CC3)CC2)cn1", "pEC50", "6.00 to 6.60"),
    ("COc1ccc([C@H]2CC[C@H](CN(c3cccc(C#Cc4cn[nH]c4)c3)C(=O)[C@H]3CC[C@H](O)CC3)CC2)cc1C", "pEC50", "≥ 6.60"),
    ("COc1ccc([C@H]2CC[C@H](CN(c3cc(-c4cnn(C5CC5)c4)ccn3)C(=O)[C@H]3CC[C@H](O)CC3)CC2)nc1C#N", "pEC50", "6.00 to 6.60"),
    ("COc1ccc(C2CCC(CN(c3cccc(-c4cnn(C5CC5)c4)c3)C(=O)[C@H]3CC[C@@H](O)CC3)CC2)cc1C (stereo partly shown)", "pEC50", "≥ 6.60"),
    ("CN(C)c1ccc([C@H]2CC[C@H](CN(c3cccc(-c4cnn(C5CC5)c4)c3)C(=O)[C@H]3CC[C@H](O)CC3)CC2)cn1", "pEC50", "≥ 6.60"),
    ("COc1ccc([C@H]2CC[C@H](CN(c3cccc(-c4cnn(C5CC5)c4)c3)C(=O)[C@H]3CC[C@H](O)CC3)CC2)cc1Cl", "pEC50", "≥ 6.60"),
]

IN: If you can, please state the reported pEC50 value of COc1ccc(C23CCC(CN(c4cccc(-c5cnn(C6CC6)c5)c4)C(=O)[C@H]4CC[C@H](O)CC4)(CC2)CC3)cc1C .
OUT: ≥ 6.60
